B1: glmS ribozyme (parent)
chain: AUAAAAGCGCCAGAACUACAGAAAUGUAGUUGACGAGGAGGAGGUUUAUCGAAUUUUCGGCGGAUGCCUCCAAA

# Variants of: B1
# method-description: kcat; higher = faster cleavage; RNA array
# experimental-parameters: with glucosamine-6-phosphate
Variants at the floor of the assay were thinned out.
Classification field: MET = kcat at or over 0.0001 s⁻¹; NOT MET = kcat under 0.0001 s⁻¹.

mutations	discrete-label
A6U G35U G38C A53U A64G	NOT MET
A36U C71U	NOT MET
U54G G59C	NOT MET
G13C G66U	NOT MET
C10A G38A	NOT MET
C10A U57G	NOT MET
C10A C58U	NOT MET
C8A C61U G66A	NOT MET
G13A A39G C61G C70A	NOT MET
C10G A39G	NOT MET
G13A A52G	NOT MET
G44A A53U	MET
G43U A64G	MET
C10G G60U	NOT MET
G66A C68U	MET
A39U U47A	MET
C16G G66U	MET
G32A U69A	NOT MET
G66U C67G	MET
A15G U65G	MET
C50U G59U	NOT MET
A12G A39C	MET
A15C U55A	MET
A33C U46A	NOT MET
A15C G32U	MET
U46A G66U	MET
C50G A52G	NOT MET
U31G C67A	MET
A53C C71A	MET
A12G U69A	MET
U30G U31G	MET
A12U U45A A53U	MET
A1G G37U	NOT MET
C11U A14U C16G	MET
U45C C68U	MET
G62U C71A	NOT MET
C11U C61U	NOT MET
A14C C16U	MET
C16G U65G	MET
A12G U30C	MET
C58A U65A	NOT MET
A14C G66U	MET
A15G U54C	MET
G29U U30A	MET
U54G C58G	MET
U30A C50U	NOT MET
U49G C61A	NOT MET
A33G C70A	NOT MET
